Consider the following compounds; for each one, report its pIC50.
- study-target: Angiotensin-converting enzyme (Homo sapiens)
- Sequence (P12821 whole entry, the tested form may be a part): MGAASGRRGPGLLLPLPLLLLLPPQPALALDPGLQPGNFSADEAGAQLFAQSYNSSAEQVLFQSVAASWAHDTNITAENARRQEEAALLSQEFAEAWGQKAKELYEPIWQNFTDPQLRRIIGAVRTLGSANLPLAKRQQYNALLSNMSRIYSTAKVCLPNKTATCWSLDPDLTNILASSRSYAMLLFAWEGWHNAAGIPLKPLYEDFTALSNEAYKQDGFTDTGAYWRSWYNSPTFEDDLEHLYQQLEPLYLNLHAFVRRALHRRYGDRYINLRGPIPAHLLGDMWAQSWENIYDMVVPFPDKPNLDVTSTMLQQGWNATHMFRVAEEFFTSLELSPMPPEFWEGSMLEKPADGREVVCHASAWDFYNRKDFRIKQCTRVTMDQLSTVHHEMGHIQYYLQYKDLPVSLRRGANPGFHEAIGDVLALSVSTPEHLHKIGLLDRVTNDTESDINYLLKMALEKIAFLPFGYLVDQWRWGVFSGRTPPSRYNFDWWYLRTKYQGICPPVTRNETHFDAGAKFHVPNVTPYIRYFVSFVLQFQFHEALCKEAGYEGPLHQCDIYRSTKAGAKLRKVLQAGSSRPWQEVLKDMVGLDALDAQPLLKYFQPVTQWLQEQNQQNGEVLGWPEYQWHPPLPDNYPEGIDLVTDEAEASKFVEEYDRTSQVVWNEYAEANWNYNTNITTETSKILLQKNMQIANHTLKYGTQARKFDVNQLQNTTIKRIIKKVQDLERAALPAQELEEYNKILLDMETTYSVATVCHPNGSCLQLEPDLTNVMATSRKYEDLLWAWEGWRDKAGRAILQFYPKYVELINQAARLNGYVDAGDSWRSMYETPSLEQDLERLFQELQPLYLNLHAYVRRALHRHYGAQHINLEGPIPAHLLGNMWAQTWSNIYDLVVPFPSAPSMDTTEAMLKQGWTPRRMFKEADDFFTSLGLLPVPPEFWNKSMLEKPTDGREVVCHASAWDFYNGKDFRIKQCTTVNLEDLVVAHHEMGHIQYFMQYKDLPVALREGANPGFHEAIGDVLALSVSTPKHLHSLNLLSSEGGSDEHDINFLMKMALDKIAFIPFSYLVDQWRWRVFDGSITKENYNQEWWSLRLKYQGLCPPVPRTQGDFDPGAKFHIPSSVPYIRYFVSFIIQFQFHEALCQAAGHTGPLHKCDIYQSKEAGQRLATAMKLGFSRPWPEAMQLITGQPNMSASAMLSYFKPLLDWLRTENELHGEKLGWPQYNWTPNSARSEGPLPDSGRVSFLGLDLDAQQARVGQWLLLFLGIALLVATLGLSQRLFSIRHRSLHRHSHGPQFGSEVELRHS
- method-summary: Inhibition of human glycosylated C-terminal catalytic ACE domain using Cbz-Phe-His-Leu substrate by fluorogenic end point activity assay
Answers are plain numbers, as −log10 of the molar value.

# annotated cases, reported pIC50 shown
NCCCC[C@H](NC(=O)[C@@H](S)Cc1ccccc1)C(=O)N[C@@H](Cc1c[nH]c2ccccc12)C(=O)O | 8.15
NCCCC[C@H](N[C@@H](CCc1ccccc1)C(=O)O)C(=O)N[C@@H](Cc1c[nH]c2ccccc12)C(=O)O | 7.10
Cc1ccc([C@H]2CC[C@@H](C(=O)O)N2C(=O)CN[C@@H](CCc2ccccc2)C(=O)O)cc1 | 5.39

Bench note, Angiotensin-converting enzyme (Homo sapiens): O=C(NCC(=O)N1[C@@H](c2cccc(O)c2)CC[C@H]1C(=O)O)[C@@H](S)Cc1ccc(O)cc1 , pIC50 reads 8.05
